Numbers sourced from ChEMBL document CHEMBL1135477.

Test system: Candida
procedure.details: Tested In vitro for antifungal activity against Candida species. at pH 7.2
Format: functional
quantity.name: MIC50 (µg/mL)
Report as a plain number; the unit µg/mL is understood.

Value lookup for MIC50; key = FC(F)(F)c1ccc(-c2c[nH]cc2[C@@H](c2ccc(Cl)cc2Cl)n2ccnc2)cc1
16

Value lookup for MIC50; key = N#Cc1ccc(-c2c[nH]cc2[C@H](c2ccc(Cl)cc2Cl)n2ccnc2)cc1
16

Value lookup for MIC50; key = Clc1ccc(COC(Cn2ccnc2)c2ccc(Cl)cc2Cl)c(Cl)c1 (stereo not given)
1

* * *

experimental.target: Lanosterol 14-alpha demethylase (Candida albicans (strain SC5314 / ATCC MYA-2876) (Yeast))
Sequence (P10613 whole entry): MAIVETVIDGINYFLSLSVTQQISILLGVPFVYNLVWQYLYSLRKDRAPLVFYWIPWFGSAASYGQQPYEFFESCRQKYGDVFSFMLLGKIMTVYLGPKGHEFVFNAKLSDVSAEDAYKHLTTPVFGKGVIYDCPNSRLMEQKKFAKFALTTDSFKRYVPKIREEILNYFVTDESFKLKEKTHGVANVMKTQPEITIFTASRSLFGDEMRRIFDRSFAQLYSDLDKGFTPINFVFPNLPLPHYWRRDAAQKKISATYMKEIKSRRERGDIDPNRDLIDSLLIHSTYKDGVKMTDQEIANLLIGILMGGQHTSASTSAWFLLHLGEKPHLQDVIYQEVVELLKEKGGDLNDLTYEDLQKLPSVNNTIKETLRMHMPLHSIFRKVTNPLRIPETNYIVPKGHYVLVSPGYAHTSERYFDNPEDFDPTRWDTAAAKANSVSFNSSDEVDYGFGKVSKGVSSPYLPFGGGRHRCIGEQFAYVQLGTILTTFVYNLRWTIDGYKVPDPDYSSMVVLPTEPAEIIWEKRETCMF
procedure.details: Anticandida activity- (MIC90 compound) / (MIC90 bifonazole)
Type: functional
For each of the compounds below, state its Ratio.
Would you mind answering with just the numeric figure?

Test system Lanosterol 14-alpha demethylase (Candida albicans (strain SC5314 / ATCC MYA-2876) (Yeast)); read-out Ratio; what value for CCn1cc(-c2ccc(Cl)cc2)c([C@H](c2ccc(Cl)cc2Cl)n2ccnc2)c1 ?
2.9

Test system Lanosterol 14-alpha demethylase (Candida albicans (strain SC5314 / ATCC MYA-2876) (Yeast)); read-out Ratio; what value for N#Cc1ccc(-c2c[nH]cc2[C@H](c2ccc(Cl)cc2Cl)n2ccnc2)cc1 ?
6.3

Test system Lanosterol 14-alpha demethylase (Candida albicans (strain SC5314 / ATCC MYA-2876) (Yeast)); read-out Ratio; what value for Clc1ccc(-c2c[nH]cc2[C@@H](c2ccc(Cl)cc2Cl)n2cnnc2)cc1 ?
49

Test system Lanosterol 14-alpha demethylase (Candida albicans (strain SC5314 / ATCC MYA-2876) (Yeast)); read-out Ratio; what value for CSc1ccc(-c2c[nH]cc2[C@H](c2ccc(Cl)cc2Cl)n2ccnc2)cc1 ?
3

Test system Lanosterol 14-alpha demethylase (Candida albicans (strain SC5314 / ATCC MYA-2876) (Yeast)); read-out Ratio; what value for Nc1ccc(-c2c[nH]cc2[C@@H](c2ccc(Cl)cc2Cl)n2ccnc2)cc1 ?
52

Test system Lanosterol 14-alpha demethylase (Candida albicans (strain SC5314 / ATCC MYA-2876) (Yeast)); read-out Ratio; what value for Oc1ccc(-c2c[nH]cc2[C@@H](c2ccc(Cl)cc2Cl)n2ccnc2)cc1 ?
26

Test system Lanosterol 14-alpha demethylase (Candida albicans (strain SC5314 / ATCC MYA-2876) (Yeast)); read-out Ratio; what value for Clc1ccc([C@H](c2c[nH]cc2-c2ccc(-c3ccccc3)cc2)n2ccnc2)c(Cl)c1 ?
5.6

Test system Lanosterol 14-alpha demethylase (Candida albicans (strain SC5314 / ATCC MYA-2876) (Yeast)); read-out Ratio; what value for Clc1ccc(-c2c[nH]cc2[C@@H](c2ccc(Cl)cc2Cl)n2cncn2)cc1 ?
49
